test system: MILI (PIWIL2) piRISC loaded with L1MC piRNA (26 nt); assay: pre-steady-state target cleavage rate (min^-1); guide: L1MC piRNA 5'p-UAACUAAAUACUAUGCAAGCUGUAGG; MIWI and MILI are mouse PIWI proteins and EfPiwi is from a freshwater sponge; tags in brackets are library labels; higher = faster piRNA-guided slicing of the target; conditions: auxiliary factor: none (no GTSF1);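 also: 1 nM active piRISC with 0.1 nM target library at 33 °C single turnover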
Each record's pre-steady-state target cleavage rate is compared with LOW: < 0.005; MID: ≥ 0.005 and < 0.007; HIGH: ≥ 0.007 to give its class.

query: Tag the class for UCCUGGAUGAGCUUGCUAAGUAUUUAGUUA
result: MID

query: Tag the class for UCCUGGAUGUCCUUGCAUAGUAUUUAGAUA
result: LOW

query: Tag the class for UCCUGGAUGUCGUUGCAUAGUAUUUAGUUUA
result: HIGH

query: Tag the class for UCCUGGAUGUCGAAGCAUAGUAUUUAAGUUA
result: LOW

query: Tag the class for UCCUCCUACAGCUUGCGUAGUAUUUAGUUA
result: HIGH

query: Tag the class for UCCUGCUUCAGCUUGCAUAGUAAUUAGUUA
result: MID

query: Tag the class for UCCUGGAUGUGCUUGCAUAGUAAUUUAGUUA
result: MID

query: Tag the class for UCCUGGAUCAGCUUGGAUAGUAUUAAGUUA
result: LOW

query: Tag the class for UCCUCCUACAGCAUGCUUAGUAUUUAGUUA
result: MID

query: Tag the class for UCCUGGUUCAGCUUGCAUUGUAUUUAGUUA
result: HIGH

query: Tag the class for UCCUGGAUGAGCUAGCAUAGUAAUUAGUUA
result: LOW

query: Tag the class for UCCUGGUACAGCUAGCAUACUAUUUAGUUA
result: LOW

query: Tag the class for UCCUGGUACAGCUAGCAUAGUAUAUAGUUA
result: LOW

query: Tag the class for UCCUGGAUGUCGAAGCUUAGUAUUUUGUUA
result: LOW

query: Tag the class for UCCUGCUACAGCUUGCAUAGUGAUUUAGUUA
result: LOW

query: Tag the class for UCCUGGUACAGCUUGCAUAGUUAUUUAGUUA
result: MID

query: Tag the class for UCCUGGAACAGGUUGCAUAGUAUUUAGUUA
result: HIGH

query: Tag the class for UCCUGGAUCUGGUUGCAUAGUAUUUAGUUA
result: HIGH

query: Tag the class for UCCUCCUACAGCUUGCAUUGUAUUUAGUUA
result: HIGH

query: Tag the class for UCCUGGAUGUCGUUGCAUAGUAUAAAGUUA
result: LOW

query: Tag the class for UCCUGGUACUGCUUGCAUAGUUUUUAGUUA
result: HIGH

query: Tag the class for UCCUGGAUGAGCUUGCAUAGAUUUUAGUUA
result: LOW

query: Tag the class for UCCUGCUACAGGUUGCAAAGUAUUUAGUUA
result: HIGH

query: Tag the class for UCCUGGAUGUGCUUUGCAUAGUAUUUAGUUA
result: HIGH

query: Tag the class for UCCUGGAUGAGCUUGCUUAGUAUUUUGUUA
result: MID

query: Tag the class for UCCUGGAUGUCCAAGCAUAGUAUUUAGUAA
result: LOW

query: Tag the class for UCCUCCUACAGCUUGCAUAGUAUUUUAGUUA
result: HIGH

query: Tag the class for UCCUGGAUGAGCUUAGCAUAGUAUUUAGUUA
result: LOW

query: Tag the class for UCCUGGAACAGCUUCGAUAGUAUUUAGUAA
result: LOW

query: Tag the class for UCCUCCAACAGCUUGCUUAGUAUUUAGUUA
result: MID

query: Tag the class for UCCUGGAUAAGCUUGCAUAGUAUUUAGUUA
result: HIGH

query: Tag the class for UCCUGGAUGUCGAACGUAUGUAUUUACAAA
result: LOW

query: Tag the class for UCCUGGAUCUGCUUGCAUAGUAAUUAGUUA
result: LOW

query: Tag the class for UCCUGGUACAGCUUGCUUACUAUUUAGUUA
result: LOW

query: Tag the class for UCCUGGAUGUGCUUGCAUAGUAUUUAGUGUA
result: LOW

query: Tag the class for UCCUCCUACUCCUUGCAUAGUAUUUAGUUA
result: HIGH

query: Tag the class for UCCUGCUACUAGCUUGCAUAGUAUUUAGUUA
result: HIGH

query: Tag the class for UCCUGCAUACAGCUUGCAUAGUAUUUAGUUA
result: HIGH

Sourced from the supplement of paper PMC10338343
